Tested System: hemagglutinin on live influenza A virus, A/California/4/09 H1N1 (Influenza A virus …)
Experiment: cell-based or functional assay

Binder | % Neutralization
TCN-550 (5096_F06) (antibody, V domains shown) VH: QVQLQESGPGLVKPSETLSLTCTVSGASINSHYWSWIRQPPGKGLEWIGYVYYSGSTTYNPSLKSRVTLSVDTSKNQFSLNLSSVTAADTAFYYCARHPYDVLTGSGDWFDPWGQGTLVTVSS VL: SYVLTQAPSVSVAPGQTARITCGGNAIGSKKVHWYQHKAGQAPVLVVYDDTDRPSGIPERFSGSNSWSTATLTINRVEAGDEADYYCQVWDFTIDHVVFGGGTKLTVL | 0%
TCN-558 (5248_H10b) (antibody, V domains shown) VH: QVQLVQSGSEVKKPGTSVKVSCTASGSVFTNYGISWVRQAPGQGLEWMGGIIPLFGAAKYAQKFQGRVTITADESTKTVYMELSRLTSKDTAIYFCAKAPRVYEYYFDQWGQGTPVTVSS VL: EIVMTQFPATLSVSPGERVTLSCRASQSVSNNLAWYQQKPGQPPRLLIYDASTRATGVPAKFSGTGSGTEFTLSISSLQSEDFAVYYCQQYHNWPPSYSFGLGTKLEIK | 96%
